Here, each record is paired with measured enrichment data.
B1: peptide HD2 (from tick evasin EVA4) / CCL17 (biotinylated, synthetic) (parent)
chain 1: EEDDYTAYAPLTCYFT
chain 2: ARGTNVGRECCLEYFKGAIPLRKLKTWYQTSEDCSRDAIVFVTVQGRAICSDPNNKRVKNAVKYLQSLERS

Variants of: B1
experimental-conditions: with CCL17 (biotinylated, synthetic); scale: log2
Form rule: numeric answer, no unit written next to it.

Reference set, count: 2
INSERT INTO results (mutant_name, parameter_measured, endpoint_value) VALUES
  ('chain 1 Y8T', 'enrichment', -8.59),
  ('chain 1 Y8R', 'enrichment', -8.29);

Request: # input variant: chain 1 A9C ; wanted: its enrichment
Response: -10.2
